- System: Acinetobacter baumannii
- Protocol notes: Growth testing against ESKAPE pathogens: Acinetobacter baumannii
- Assay type: cell-based
- Set-up: key: Growth; X: No Growth
- Condition details: 7 μg/ml
- Protocol: Six analogs (FIG. 2) of the ciprofloxacin-N thiolated β-lactam were successfully synthesized. All these compounds were then tested against ESKAPE pathogens for bioactivity. The ESKAPE pathogens are a collection of six deadly superbugs, Enterococcus faecium, Staphylococcus aureus, Klebsiella pneumoniae, Acinetobacter baumannii, Pseudomonas aeruginosa, and Enterobacter species. […] G denotes growth and X denotes no growth in the tables.
Value type: Activity against Acinetobacter baumannii (growth observed)

CCCCCC(=O)N1CCN(c2cc3c(cc2F)c(=O)c(C(=O)OC2C(=O)N(c4ccc(OC)cc4)C2c2ccccc2Cl)cn3C2CC2)CC1 (stereo not drawn) ... G
CCCCCCC(=O)N1CCN(c2cc3c(cc2F)c(=O)c(C(=O)OC2C(=O)N(SC(C)CC)C2c2ccccc2Cl)cn3C2CC2)CC1 (stereo not drawn) ... G
CCC(C)SN1C(=O)C(OC(=O)c2cn(C3CC3)c3cc(N4CCN(C(C)=O)CC4)c(F)cc3c2=O)C1c1ccccc1Cl (stereo not drawn) ... G

###

- Test system: Pseudomonas aeruginosa
- Protocol notes: Growth testing against ESKAPE pathogens: Pseudomonas aeruginosa
- Format: cell-based
- Set-up: key: Growth; X: No Growth
- Condition details: 3 μg/ml
Value type: Activity against Pseudomonas aeruginosa (growth observed)

Guide cases for Activity against Pseudomonas aeruginosa (growth observed), answers given:
CCCCCC(=O)N1CCN(c2cc3c(cc2F)c(=O)c(C(=O)OC2C(=O)N(c4ccc(OC)cc4)C2c2ccccc2Cl)cn3C2CC2)CC1 (stereo not drawn) ... G
CCCCCC(=O)N1CCN(c2cc3c(cc2F)c(=O)c(C(=O)OC2C(=O)N(SC)C2c2ccccc2)cn3C2CC2)CC1 (stereo not drawn) ... G
CCCCCCC(=O)N1CCN(c2cc3c(cc2F)c(=O)c(C(=O)OC2C(=O)N(SC(C)CC)C2c2ccccc2Cl)cn3C2CC2)CC1 (stereo not drawn) ... G
CCC(C)SN1C(=O)C(OC(=O)c2cn(C3CC3)c3cc(N4CCN(C(C)=O)CC4)c(F)cc3c2=O)C1c1ccccc1Cl (stereo not drawn) ... G
CCCCCC(=O)N1CCN(c2cc3c(cc2F)c(=O)c(C(=O)OC2C(=O)N(SC(C)CC)C2c2ccccc2Cl)cn3C2CC2)CC1 (stereo not drawn) ... G

Now let's try a different one.
So for CCCCCCC(=O)N1CCN(c2cc3c(cc2F)c(=O)c(C(=O)OC2C(=O)N(SC)C2c2ccccc2)cn3C2CC2)CC1 (stereo not drawn) , the logged Activity against Pseudomonas aeruginosa (growth observed) turned out to be G

###

- Test system: Enterococcus faecium
- Protocol notes: Growth testing against ESKAPE pathogens: Enterococcus faecium
- Type: cell-based
- Parameters: key: Growth; X: No Growth
- Condition details: 8 μg/ml
Value type: Activity against Enterococcus faecium (growth observed)

CCCCCCC(=O)N1CCN(c2cc3c(cc2F)c(=O)c(C(=O)OC2C(=O)N(SC(C)CC)C2c2ccccc2Cl)cn3C2CC2)CC1 (stereo not drawn) ... G
CCCCCC(=O)N1CCN(c2cc3c(cc2F)c(=O)c(C(=O)OC2C(=O)N(SC)C2c2ccccc2)cn3C2CC2)CC1 (stereo not drawn) ... G
CCCCCCC(=O)N1CCN(c2cc3c(cc2F)c(=O)c(C(=O)OC2C(=O)N(SC)C2c2ccccc2)cn3C2CC2)CC1 (stereo not drawn) ... G
